# protocol summary: Metabolic stability in rat hepatocyte assessed as intrinsic clearance measured per 10^6 cells in presence of NADPH regenerating system by LC-MS/MS analysis
# test parameters: hepatocytes
# maps each entry to its hepatocyte CLint
quantity measured: hepatocyte CLint

Cc1nc(C)n(CC(=O)N2CCN(c3sc(C(F)(F)F)nc3-c3cnc(C(F)(F)F)nc3)C[C@H]2C)n1 < 2 µL/min/1e6 cells
CCOc1ncc(-c2nc(C(F)(F)F)sc2N2CCN(C(=O)Cn3nc(C)nc3C)[C@H](C)C2)cn1 < 2 µL/min/1e6 cells
Cc1nc(C)n(CC(=O)N2CCN(c3sc(C(F)(F)F)nc3-c3cnc(OC(C)C)nc3)C[C@H]2C)n1 2.5 µL/min/1e6 cells

---

# assayed system: UniProt:Q12809
# protocol summary: Inhibition of hERG expressed in CHO cells by Q patch-clamp method
Listed below: IC50 values for each entry.
quantity measured: IC50 (µM)

CCOc1ncc(-c2nc(C(F)(F)F)sc2N2CCN(C(=O)Cn3nc(C)cc3C)[C@H](C)C2)cn1 13
CCOc1ncc(-c2nc(C(F)(F)F)sc2N2CCN(C(=O)Cn3ccc(C(F)(F)F)n3)[C@H](C)C2)cn1 5.1
C[C@@H]1CN(c2scnc2-c2nc3ccccc3[nH]2)CCN1C(=O)Cn1cnc2cccnc21 2.2
CCOc1ncc(-c2nc(C(F)(F)F)sc2N2CCN(C(=O)Cn3nccc3C)[C@H](C)C2)cn1 5.6
C[C@H]1CN(c2scnc2-c2nc3ccccc3[nH]2)CCN1C(=O)Cn1cnc2cccnc21 0.63
CCOc1ncc(-c2nc(C(F)(F)F)sc2N2CCN(C(=O)CN3C(=O)Cc4ccccc43)[C@H](C)C2)cn1 3
Cc1nc(-c2nc3ccccc3[nH]2)c(N2CCN(C(=O)Cn3cnc4cccnc43)[C@H](C)C2)s1 2.6
Cc1nc(C)n(CC(=O)N2CCN(c3sc(C(F)(F)F)nc3-c3cnc(C4CC4)nc3)C[C@H]2C)n1 13
C[C@@H]1CN(c2sc(CO)nc2-c2nc3ccccc3[nH]2)CCN1C(=O)Cn1cnc2cccnc21 19
Cc1nc(C)n(CC(=O)N2CCN(c3sc(C(F)(F)F)nc3-c3ccc(C(F)(F)F)nc3)C[C@H]2C)n1 5.2
C[C@@H]1CN(c2sc(Br)nc2-c2nc3ccccc3[nH]2)CCN1C(=O)Cn1cnc2cccnc21 0.34

---

# protocol summary: in vitro
# test parameters: human, microsomes
# microsomal CLint at 1 µM per record follows
quantity measured: microsomal CLint at 1 µM (µL/min/mg)

C[C@@H]1CN(c2sc(C(F)(F)F)nc2-c2nc3ccccc3[nH]2)CCN1C(=O)Cn1cnc2cccnc21 89
Cc1nc(C)n(CC(=O)N2CCN(c3sc(C(F)(F)F)nc3-c3cnc(OC4CCC4)nc3)C[C@H]2C)n1 51
Cc1nc(C)n(CC(=O)N2CCN(c3sc(C(F)(F)F)nc3-c3cnc(OC(C)C)nc3)C[C@H]2C)n1 16
CCOc1ncc(-c2nc(C(F)(F)F)sc2N2CCN(C(=O)Cn3ccc(C(F)(F)F)n3)[C@H](C)C2)cn1 20
C[C@@H]1CN(c2scnc2-c2nc3ccccc3[nH]2)CCN1C(=O)Cn1cnc2cccnc21 12

---

# assayed system: Voltage-gated inwardly rectifying potassium channel KCNH2 (Homo sapiens, UniProt Q12809)
# Sequence (Q12809 whole entry): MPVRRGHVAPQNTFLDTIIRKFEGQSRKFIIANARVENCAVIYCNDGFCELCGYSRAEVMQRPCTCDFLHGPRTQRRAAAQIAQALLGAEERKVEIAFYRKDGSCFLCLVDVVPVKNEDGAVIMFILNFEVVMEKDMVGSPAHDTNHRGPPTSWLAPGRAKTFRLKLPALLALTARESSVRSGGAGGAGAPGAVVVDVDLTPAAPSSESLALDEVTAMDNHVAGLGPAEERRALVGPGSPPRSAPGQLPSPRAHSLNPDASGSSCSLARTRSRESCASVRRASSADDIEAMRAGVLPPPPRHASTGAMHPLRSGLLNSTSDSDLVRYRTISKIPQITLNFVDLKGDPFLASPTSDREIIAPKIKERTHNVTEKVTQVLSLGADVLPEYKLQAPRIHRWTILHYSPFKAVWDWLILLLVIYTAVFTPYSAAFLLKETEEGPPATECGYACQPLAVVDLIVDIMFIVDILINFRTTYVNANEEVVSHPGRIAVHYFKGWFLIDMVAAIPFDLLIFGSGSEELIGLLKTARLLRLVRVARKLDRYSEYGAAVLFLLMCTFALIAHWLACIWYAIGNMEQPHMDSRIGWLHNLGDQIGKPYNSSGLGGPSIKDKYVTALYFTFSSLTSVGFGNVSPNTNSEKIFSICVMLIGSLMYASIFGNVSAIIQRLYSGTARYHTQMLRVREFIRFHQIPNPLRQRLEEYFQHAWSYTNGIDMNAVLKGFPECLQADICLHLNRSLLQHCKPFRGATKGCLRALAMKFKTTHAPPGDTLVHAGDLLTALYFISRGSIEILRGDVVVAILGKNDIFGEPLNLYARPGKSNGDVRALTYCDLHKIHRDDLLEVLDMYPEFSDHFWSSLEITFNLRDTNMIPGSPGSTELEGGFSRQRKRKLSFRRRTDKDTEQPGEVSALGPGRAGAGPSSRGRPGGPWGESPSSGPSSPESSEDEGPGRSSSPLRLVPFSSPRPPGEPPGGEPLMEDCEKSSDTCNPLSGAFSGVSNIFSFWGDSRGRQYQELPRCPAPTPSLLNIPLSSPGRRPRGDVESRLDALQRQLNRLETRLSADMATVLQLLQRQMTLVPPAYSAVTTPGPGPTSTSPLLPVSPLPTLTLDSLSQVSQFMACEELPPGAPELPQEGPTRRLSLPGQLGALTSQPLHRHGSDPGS
# protocol summary: Inhibition of hERG expressed in CHO cells by Q patch-clamp method
quantity measured: IC50 (µM)

CCOc1ncc(-c2nc(C(F)(F)F)sc2N2CCN(C(=O)Cn3c(=O)oc4ccccc43)[C@H](C)C2)cn1 2.2
CC[C@@H]1CN(c2scnc2-c2nc3ccccc3[nH]2)CCN1C(=O)Cn1cnc2cccnc21 0.75
CCOc1ncc(-c2nc(C(F)(F)F)sc2N2CCN(C(=O)Cn3cnc4cccnc43)[C@H](C)C2)cn1 13
CCOc1ncc(-c2nc(C(F)(F)F)sc2N2CCN(C(=O)Cn3ncc4cccnc43)[C@H](C)C2)cn1 15
C[C@@H]1CN(c2sc(C3COC3)nc2-c2nc3ccccc3[nH]2)CCN1C(=O)Cn1cnc2cccnc21 4.4
CCOc1ncc(-c2nc(C(F)(F)F)sc2N2CCN(C(=O)Cn3ccc4cccnc43)[C@H](C)C2)cn1 4.2

---

Form field: inhibition at 10 µM (one value per entry).
# assayed system: hERG (Homo sapiens)
# Sequence (Q12809 whole entry): as above
# protocol summary: Inhibition of hERG expressed in CHO cells 10 uM at by Q patch-clamp method relative to control
quantity measured: inhibition at 10 µM (%)

C[C@@H]1CN(c2sc(C(F)(F)F)nc2-c2cnc(OCCN(C)C)nc2)CCN1C(=O)Cn1cnc2cccnc21 25
Cc1ncc(-c2nc(C(F)(F)F)sc2N2CCN(C(=O)Cn3cnc4cccnc43)[C@H](C)C2)cn1 40
COc1ccc(-c2nc(C(F)(F)F)sc2N2CCN(C(=O)Cn3cnc4cccnc43)[C@H](C)C2)cc1 53
COCCOc1ncc(-c2nc(C(F)(F)F)sc2N2CCN(C(=O)Cn3cnc4cccnc43)[C@H](C)C2)cn1 17

---

# assayed system: C-X-C chemokine receptor type 3 (Homo sapiens)
The threshold is 4 nM. Values of IC50 beneath it are tagged Condition met; values meeting or exceeding it are tagged Condition not met.

CCOc1ncc(-c2nc(C(F)(F)F)sc2N2CCN(C(=O)Cn3nccc3C)[C@H](C)C2)cn1 Condition met
Cc1nc(C)n(CC(=O)N2CCN(c3sc(C(F)(F)F)nc3-c3cnc(N4CCCC4)nc3)C[C@H]2C)n1 Condition met
C[C@H]1CN(c2scnc2-c2nc3ccccc3[nH]2)CCN1C(=O)Cn1cnc2cccnc21 Condition not met
CCOc1ncc(-c2nc(C(F)(F)F)sc2N2CCN(C(=O)Cn3ccc(C(F)(F)F)n3)[C@H](C)C2)cn1 Condition met
C[C@@H]1CN(c2sc(C(F)(F)F)nc2-c2cnc(OCCN(C)C)nc2)CCN1C(=O)Cn1cnc2cccnc21 Condition not met
O=C(Cn1cnc2cccnc21)N1CCN(c2ncsc2-c2nc3ccccc3[nH]2)CC1 Condition not met

---

# assayed system: C-X-C chemokine receptor type 3 (Homo sapiens, UniProt P49682)
# Sequence (P49682 whole entry): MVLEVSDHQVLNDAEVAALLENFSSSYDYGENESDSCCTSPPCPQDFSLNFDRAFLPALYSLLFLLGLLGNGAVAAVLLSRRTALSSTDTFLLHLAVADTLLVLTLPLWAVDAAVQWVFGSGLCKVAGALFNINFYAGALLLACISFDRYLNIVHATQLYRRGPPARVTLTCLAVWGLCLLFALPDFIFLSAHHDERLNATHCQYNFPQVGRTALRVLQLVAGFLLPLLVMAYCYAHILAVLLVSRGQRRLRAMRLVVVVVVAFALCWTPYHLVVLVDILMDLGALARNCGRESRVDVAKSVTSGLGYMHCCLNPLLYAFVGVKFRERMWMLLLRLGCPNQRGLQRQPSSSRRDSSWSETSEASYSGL
pIC50: −log10 of the molar value.
quantity measured: pIC50

C[C@@H]1CN(c2sc(C3CC3)nc2-c2nc3ccccc3[nH]2)CCN1C(=O)Cn1cnc2cccnc21 6.00
C[C@@H]1CN(c2sc(C(F)(F)F)nc2-c2cnc(OCCN(C)C)nc2)CCN1C(=O)Cn1cnc2cccnc21 6.42
Cc1nc(C)n(CC(=O)N2CCN(c3sc(C(F)(F)F)nc3-c3cnc(OC(C)C)nc3)C[C@H]2C)n1 6.67

---

# assayed system: Voltage-gated inwardly rectifying potassium channel KCNH2 (Homo sapiens)
# protocol summary: Inhibition of hERG expressed in CHO cells by Q patch-clamp method
Examples of compounds with documented IC50 follow.
quantity measured: IC50

CCCc1ncc(-c2nc(C(F)(F)F)sc2N2CCN(C(=O)Cn3nc(C)nc3C)[C@H](C)C2)cn1 > 20 µM
COc1ncc(-c2nc(C(F)(F)F)sc2N2CCN(C(=O)Cn3nc(C)nc3C)[C@H](C)C2)cn1 > 20 µM
Cc1nc(C)n(CC(=O)N2CCN(c3sc(C(F)(F)F)nc3-c3cnc(OC(C)C)nc3)C[C@H]2C)n1 > 20 µM
COc1ccc(-c2nc(C(F)(F)F)sc2N2CCN(C(=O)Cn3nc(C)nc3C)[C@H](C)C2)cn1 > 20 µM
CCOc1ccc(-c2nc(C(F)(F)F)sc2N2CCN(C(=O)Cn3nc(C)nc3C)[C@H](C)C2)cn1 > 20 µM

---

// values below are reported pIC50
# assayed system: UniProtKB Q12809
# protocol summary: Inhibition of hERG expressed in CHO cells by Q patch-clamp method
pIC50: −log10 of the molar value.
quantity measured: pIC50

CCOc1ncc(-c2nc(C(F)(F)F)sc2N2CCN(C(=O)Cn3cnc(C(F)(F)F)n3)[C@H](C)C2)cn1 < 5.22
CCOc1ncc(-c2nc(C(F)(F)F)sc2N2CCN(C(=O)Cn3nc(C)nc3C)[C@H](C)C2)cn1 < 4.70
Cc1nc(C)n(CC(=O)N2CCN(c3sc(C(F)(F)F)nc3-c3cnc(OC4CCC4)nc3)C[C@H]2C)n1 < 4.70
COCCOc1ncc(-c2nc(C(F)(F)F)sc2N2CCN(C(=O)Cn3cnc4cccnc43)[C@H](C)C2)cn1 < 4.70
Cc1ncc(-c2nc(C(F)(F)F)sc2N2CCN(C(=O)Cn3nc(C)nc3C)[C@H](C)C2)cn1 < 4.70
COc1ncc(-c2nc(C(F)(F)F)sc2N2CCN(C(=O)Cn3cnc4cccnc43)[C@H](C)C2)cn1 < 4.70
